system_tested: cyno SIRPα stably expressed on CHOK1 cells (cyno)
assay_summary: FACS, CHOK1-Cyno SIRPα cells
# maps each entry to its TOP MFI
value_type: TOP MFI (MFI)

1. 015c (antibody, V domains shown) VH: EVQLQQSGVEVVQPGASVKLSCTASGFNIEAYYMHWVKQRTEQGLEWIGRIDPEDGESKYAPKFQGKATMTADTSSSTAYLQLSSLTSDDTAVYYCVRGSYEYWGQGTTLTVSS VL: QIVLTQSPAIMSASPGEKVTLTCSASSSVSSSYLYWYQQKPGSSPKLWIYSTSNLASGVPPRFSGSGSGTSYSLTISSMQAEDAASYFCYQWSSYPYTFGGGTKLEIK    29700
2. 073c (antibody, V domains shown) VH: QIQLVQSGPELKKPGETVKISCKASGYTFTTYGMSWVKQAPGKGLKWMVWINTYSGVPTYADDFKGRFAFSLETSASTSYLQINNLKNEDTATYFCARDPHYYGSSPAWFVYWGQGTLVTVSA VL: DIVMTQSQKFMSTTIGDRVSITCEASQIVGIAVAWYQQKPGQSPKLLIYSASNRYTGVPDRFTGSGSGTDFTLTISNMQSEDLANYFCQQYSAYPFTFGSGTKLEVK    30700
3. 059c (antibody, V domains shown) VH: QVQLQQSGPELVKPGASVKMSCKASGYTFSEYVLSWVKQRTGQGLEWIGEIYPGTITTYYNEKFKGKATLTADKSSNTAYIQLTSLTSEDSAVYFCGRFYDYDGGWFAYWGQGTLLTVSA VL: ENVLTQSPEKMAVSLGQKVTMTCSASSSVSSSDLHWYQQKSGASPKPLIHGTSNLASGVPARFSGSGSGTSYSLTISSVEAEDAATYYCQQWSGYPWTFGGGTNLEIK    17400
